Tested on: HCV 1b-377-neo replicon cells
experimental_details: HCV Replicon assay, HCV 1b-377-neo replicon cells
Format: cell-based, HCV 1b genotype
condition: Hepatitis C virus, Table 2, read-out: Range (EC50 against HCV 1b)
measurement_type: EC50

// query Entry COC(=O)N[C@@H](C(=O)N(C)[C@@H](C)c1ncc(-c2ccc(-c3ncc(-c4cnc([C@@H]5CCCN5C(=O)[C@@H](c5ccccc5)N5CCCCC5)[nH]4)cn3)cc2)[nH]1)c1ccccc1 [Example 152l-1] : reported EC50 = ?
// result 1 to 999 pM

// query Now consider COC(=O)N[C@@H](C(=O)N(C)[C@@H](C)c1ncc(-c2ccc(-c3ncc(-c4cnc([C@@H]5CCCN5C(=O)[C@H](NC(=O)OC)c5ccccc5)[nH]4)cn3)cc2)[nH]1)c1ccccc1 [Example 152j-21] .
// result 1 to 999 pM

// query Now consider COC(=O)N[C@@H](C(=O)N1CCC[C@H]1c1ncc(-c2ccc(-c3ccc(-c4cnc([C@@H]5CCCN5C(=O)[C@H](NC(=O)OC)c5ccccc5)[nH]4)nn3)nn2)[nH]1)c1ccccc1 [Example 153c-2] .
// result 1000 to 99000 pM

// query Now consider CN(C)[C@@H](C(=O)N1CCC[C@H]1c1ncc(-c2cnc(-c3cnc(-c4cnc([C@@H]5CCCN5C(=O)[C@@H](c5ccccc5)N(C)C)[nH]4)cn3)cn2)[nH]1)c1ccccc1 [Example 153c-5] .
// result 1000 to 99000 pM

// query Now consider `COC(=O)N[C@@H](C(=O)N(C)[C@@H](C)c1ncc(-c2ccc(-c3ccc(-c4cnc([C@@H]5CCCN5C(=O)[C@@H](c5ccccc5)N(C)C)[nH]4)cc3)cc2)[nH]1)c1ccccc1` .
// result 1 to 999 pM
